System: P. aeruginosa ATCC 27853
EXPERIMENT_NOTES: Neutropenic mouse bloodstream infection model
Assay type: in vivo
PROTOCOL_CONDITIONS: single IV dose 4 mg/kg, 4 h, treated minus control, mean of replicates; 4 mg/kg
Residues, ends and D or L forms follow the SMILES beside them.
OBSERVATION_TYPE: Δlog10 CFU/mL blood (mean) (log10 CFU/mL blood)
Reply numerically in log10 CFU/mL blood, unit not repeated.

Endpoint output: Δlog10 CFU/mL blood (mean) of CCCCCCCC(=O)N[C@@H](CCN)C(=O)N[C@H](C(=O)N[C@@H](CCN)C(=O)N[C@H]1CCNC(=O)[C@H]([C@@H](C)O)NC(=O)[C@H](CCN)NC(=O)[C@H](CCN)NC(=O)[C@H]([C@@H](C)O)NC(=O)[C@@H](CCCC)NC(=O)[C@H](CCN)NC1=O)[C@@H](C)O [Lipopeptide F226] (HELM PEPTIDE1{[CCCCCCCC(=O)[*:2]].[Dab].T.[Dab].[Dab].[Dab].[CCCC[C@@H](N[*:1])C(=O)[*:2]].T.[Dab].[Dab].T}$PEPTIDE1,PEPTIDE1,5:R3-11:R2$$$V2.0) . Value?
−3.24

----------
EXPERIMENT_NOTES: Distribution, accumulation and metabolism in mouse kidneys (ME-SALDI-MS imaging, histology)
Type: in vivo
PROTOCOL_CONDITIONS: female, Swiss, mouse, in vivo, 10 umol/kg; 10 μmol/kg SC, 6 doses Day 1 and 3 doses Day 2, 2 h after last dose; read-out: Concentration in the kidney cortex region
Method: At 2 h after the last dose on Day 2, mice were rapidly euthanized. The left kidney was collected, flash-frozen in liquid nitrogen, and stored at -80 C for MS imaging analysis. […] Lipopeptide accumulation in mouse kidneys was determined by simultaneous […] analysis of kidney tissue from treated animals and serial dilutions of the drug deposited on control kidney tissue. […] Levels of accumulated lipopeptide metabolites were determined by normalization to the parent ion in MSI data.
Residues, ends and D or L forms follow the SMILES beside them.
Reported level at time molar values for the following compounds.
Include the unit after the number when you answer.

| COMPOUND | RESULT |
| --- | --- |
| CC[C@H](C)CCCCC(=O)N[C@@H](CCN)C(=O)N[C@H](C(=O)N[C@@H](CCN)C(=O)N[C@H]1CCNC(=O)[C@H]([C@@H](C)O)NC(=O)[C@H](CCN)NC(=O)[C@H](CCN)NC(=O)[C@H](CC(C)C)NC(=O)[C@@H](Cc2ccccc2)NC(=O)[C@H](CCN)NC1=O)[C@@H](C)O [polymyxin B1] (HELM PEPTIDE1{[CC[C@H](C)CCCCC(=O)[*:2]].[Dab].T.[Dab].[Dab].[Dab].[dF].L.[Dab].[Dab].T}$PEPTIDE1,PEPTIDE1,5:R3-11:R2$$$V2.0) | 38.2 µM |

Endpoint output: level at time molar of CC[C@H](C)CCCCC(=O)N[C@@H](CCN)C(=O)N[C@H](C(=O)N[C@@H](CCN)C(=O)N[C@H]1CCNC(=O)[C@H]([C@@H](C)O)NC(=O)[C@H](CCN)NC(=O)[C@H](CCN)NC(=O)[C@H](CC(C)C)NC(=O)[C@@H](CC(C)C)NC(=O)[C@H](CCN)NC1=O)[C@@H](C)O [colistin A] (HELM PEPTIDE1{[CC[C@H](C)CCCCC(=O)[*:2]].[Dab].T.[Dab].[Dab].[Dab].[dL].L.[Dab].[Dab].T}$PEPTIDE1,PEPTIDE1,5:R3-11:R2$$$V2.0) . Value?
86.7 µM

Endpoint output: level at time molar of CC[C@@H]1NC(=O)[C@@H](CC(C)C)NC(=O)[C@H](CCN)NC(=O)[C@@H](NC(=O)[C@H](CN)NC(=O)[C@@H](NC(=O)[C@H](CCN)NC(=O)c2ccc(Cl)cc2Cl)[C@@H](C)O)CCNC(=O)[C@H]([C@@H](C)O)NC(=O)[C@H](CCN)NC(=O)[C@H](CCN)NC1=O [Lipopeptide F365] (HELM PEPTIDE1{[O=C(c1ccc(Cl)cc1Cl)[*:2]].[Dab].T.[NC[C@H](N[*:1])C(=O)[*:2]].[Dab].[Dab].[dL].[Abu].[Dab].[Dab].T}$PEPTIDE1,PEPTIDE1,5:R3-11:R2$$$V2.0) . Value?
20.8 µM

----------
Reported MTD values for the following compounds.
EXPERIMENT_NOTES: Acute toxicity in mice (maximum tolerated dose, IV bolus)
Format: in vivo, mouse
PROTOCOL_CONDITIONS: mouse, in vivo, iv, single IV bolus dose, replicates 1-4; read-out: MTD, single replicate
Residues, ends and D or L forms follow the SMILES beside them.

| COMPOUND | OBSERVATION_TYPE | RESULT |
| --- | --- | --- |
| CC[C@@H]1NC(=O)[C@@H](CC(C)C)NC(=O)[C@H](CCN)NC(=O)[C@@H](NC(=O)[C@H](CN)NC(=O)[C@@H](NC(=O)[C@H](CCN)NC(=O)c2ccc(-c3ccccc3)cc2)[C@@H](C)O)CCNC(=O)[C@H]([C@@H](C)O)NC(=O)[C@H](CCN)NC(=O)[C@H](CCN)NC1=O [Lipopeptide F477] (HELM PEPTIDE1{[O=C(c1ccc(-c2ccccc2)cc1)[*:2]].[Dab].T.[NC[C@H](N[*:1])C(=O)[*:2]].[Dab].[Dab].[dL].[Abu].[Dab].[Dab].T}$PEPTIDE1,PEPTIDE1,5:R3-11:R2$$$V2.0) | MTD | 10 mg/kg |

Endpoint output: MTD of CCCCCC(=O)N[C@@H](CCN)C(=O)N[C@H](C(=O)N[C@@H](CN)C(=O)N[C@H]1CCNC(=O)[C@H]([C@@H](C)O)NC(=O)[C@H](CCN)NC(=O)[C@H](CCN)NC(=O)[C@H](CC)NC(=O)[C@@H](CC(C)C)NC(=O)[C@H](CCN)NC1=O)[C@@H](C)O [Lipopeptide F342] (HELM PEPTIDE1{[CCCCCC(=O)[*:2]].[Dab].T.[NC[C@H](N[*:1])C(=O)[*:2]].[Dab].[Dab].[dL].[Abu].[Dab].[Dab].T}$PEPTIDE1,PEPTIDE1,5:R3-11:R2$$$V2.0) . Value?
20 mg/kg

----------
EXPERIMENT_NOTES: Cell viability after 24 h treatment
Assay type: cell-based, human
PROTOCOL_CONDITIONS: human, KCNJ16 knockout HK-2 cells (kidney proximal tubular), Cell viability, KCNJ16 KO, Rep3; KCNJ16 knockout HK-2 cells, 24 h; replicate 3; Fig. 6b; read-out: Cell viability, KCNJ16 KO, Rep3
Residues, ends and D or L forms follow the SMILES beside them.
Reported viability at 24 h values for the following molecules.
Reply numerically in %, unit not repeated.

| MOLECULE | RESULT_NUMBER |
| --- | --- |
| CCCCCCCC(=O)N[C@@H](CCN)C(=O)N[C@H](C(=O)N[C@@H](CCN)C(=O)N[C@H]1CCNC(=O)[C@H]([C@@H](C)O)NC(=O)[C@H](CCN)NC(=O)[C@H](CCN)NC(=O)[C@H](CC)NC(=O)[C@@H](CC(C)C)NC(=O)[C@H](CCN)NC1=O)[C@@H](C)O [Lipopeptide F319] (HELM PEPTIDE1{[CCCCCCCC(=O)[*:2]].[Dab].T.[Dab].[Dab].[Dab].[dL].[Abu].[Dab].[Dab].T}$PEPTIDE1,PEPTIDE1,5:R3-11:R2$$$V2.0) | 91.1 |

Endpoint output: viability at 24 h of CCCCCCCC(=O)N[C@@H](CCN)C(=O)N[C@H](C(=O)N[C@@H](CN)C(=O)N[C@H]1CCNC(=O)[C@H]([C@@H](C)O)NC(=O)[C@H](CCN)NC(=O)[C@H](CCN)NC(=O)[C@H](CC)NC(=O)[C@@H](CC(C)C)NC(=O)[C@H](CCN)NC1=O)[C@@H](C)O [Lipopeptide F287] (HELM PEPTIDE1{[CCCCCCCC(=O)[*:2]].[Dab].T.[NC[C@H](N[*:1])C(=O)[*:2]].[Dab].[Dab].[dL].[Abu].[Dab].[Dab].T}$PEPTIDE1,PEPTIDE1,5:R3-11:R2$$$V2.0) . Value?
82.8

Endpoint output: viability at 24 h of CC[C@@H]1NC(=O)[C@@H](CC(C)C)NC(=O)[C@H](CCN)NC(=O)[C@@H](NC(=O)[C@H](CN)NC(=O)[C@@H](NC(=O)[C@H](CCN)NC(=O)c2ccc(Cl)cc2Cl)[C@@H](C)O)CCNC(=O)[C@H]([C@@H](C)O)NC(=O)[C@H](CCN)NC(=O)[C@H](CCN)NC1=O [Lipopeptide F365] (HELM PEPTIDE1{[O=C(c1ccc(Cl)cc1Cl)[*:2]].[Dab].T.[NC[C@H](N[*:1])C(=O)[*:2]].[Dab].[Dab].[dL].[Abu].[Dab].[Dab].T}$PEPTIDE1,PEPTIDE1,5:R3-11:R2$$$V2.0) . Value?
100
